target: T1, cynomolgus monkey C-MET on stably transfected CHO-K1 cells (cynomolgus monkey, UniProt A0M8R7 25-1381 (Papio anubis entry)); assay: flow cytometry, C-MET CHO-K1 cells
T1 construct: also called cycMET; cyno C-MET+ CHO-K1 cells
T1 sequence (A0M8R7 25-1381 S170N/I621T limits assumed): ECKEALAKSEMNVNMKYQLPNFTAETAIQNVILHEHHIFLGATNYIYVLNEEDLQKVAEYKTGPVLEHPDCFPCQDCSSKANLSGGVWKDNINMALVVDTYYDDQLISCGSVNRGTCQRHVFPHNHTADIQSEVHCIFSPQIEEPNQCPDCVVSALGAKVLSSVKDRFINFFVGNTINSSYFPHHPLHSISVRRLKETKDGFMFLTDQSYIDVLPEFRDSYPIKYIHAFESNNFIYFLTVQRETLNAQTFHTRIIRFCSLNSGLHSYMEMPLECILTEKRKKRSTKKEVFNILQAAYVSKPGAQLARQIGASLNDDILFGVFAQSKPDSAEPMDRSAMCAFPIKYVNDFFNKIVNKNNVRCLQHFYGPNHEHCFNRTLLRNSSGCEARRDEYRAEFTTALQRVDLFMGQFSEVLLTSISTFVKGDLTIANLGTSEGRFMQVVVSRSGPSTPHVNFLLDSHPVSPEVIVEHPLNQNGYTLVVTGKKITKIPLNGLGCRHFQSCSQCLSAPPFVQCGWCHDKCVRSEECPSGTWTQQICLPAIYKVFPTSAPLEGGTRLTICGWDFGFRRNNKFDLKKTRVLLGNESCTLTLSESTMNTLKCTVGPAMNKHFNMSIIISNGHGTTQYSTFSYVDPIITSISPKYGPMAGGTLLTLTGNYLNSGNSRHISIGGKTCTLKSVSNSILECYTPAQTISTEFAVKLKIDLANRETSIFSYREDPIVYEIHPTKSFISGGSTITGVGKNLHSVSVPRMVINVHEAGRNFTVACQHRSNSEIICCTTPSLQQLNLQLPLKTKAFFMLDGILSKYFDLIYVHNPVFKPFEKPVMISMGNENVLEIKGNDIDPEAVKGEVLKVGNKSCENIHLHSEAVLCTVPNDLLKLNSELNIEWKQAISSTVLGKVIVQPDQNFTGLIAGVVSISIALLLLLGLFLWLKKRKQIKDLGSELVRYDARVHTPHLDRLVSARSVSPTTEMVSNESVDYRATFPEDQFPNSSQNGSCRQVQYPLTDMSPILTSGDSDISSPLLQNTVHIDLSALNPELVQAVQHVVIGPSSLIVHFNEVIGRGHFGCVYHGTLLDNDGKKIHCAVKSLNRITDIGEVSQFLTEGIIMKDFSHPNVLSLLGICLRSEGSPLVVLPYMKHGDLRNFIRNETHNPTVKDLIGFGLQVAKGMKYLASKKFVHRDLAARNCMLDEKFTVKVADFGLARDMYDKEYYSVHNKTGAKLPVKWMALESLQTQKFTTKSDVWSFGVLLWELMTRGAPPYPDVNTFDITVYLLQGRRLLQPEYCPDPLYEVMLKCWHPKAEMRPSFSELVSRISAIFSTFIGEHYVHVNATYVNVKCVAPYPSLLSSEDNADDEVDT
Flag rule - EC50 less than 0.6 nM flags 1; the remaining entries get -1.

Take a look at these entries with their results.
07C10 (antibody, IgG4, V domains shown) VH: QVQLVQSGAEVKKPGASVKVSCKASGYIFTAYSMHWVRQAPGQGLEWMGIIKPSNGSTNYAQKFQGRVTMTRDTSTSTVYMELSSLRSEDTAVYYCARAEITTEFDYWGQGTLVTVSS VL: EIVLTQSPGTLSLSPGERATLSCRASQSVESYAQSYLHWYQQKPGQAPRLLIYRGSTRESGIPDRFSGSGSGTDFTLTISRLEPEDFAVYYCQQSKEEPLTFGGGTKVEIK; -1
MH3 (antibody, IgG4, V domains shown, also called MH03) VH: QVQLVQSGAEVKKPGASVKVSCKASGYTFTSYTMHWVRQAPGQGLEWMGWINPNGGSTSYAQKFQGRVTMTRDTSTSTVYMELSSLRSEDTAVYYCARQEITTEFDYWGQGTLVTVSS VL: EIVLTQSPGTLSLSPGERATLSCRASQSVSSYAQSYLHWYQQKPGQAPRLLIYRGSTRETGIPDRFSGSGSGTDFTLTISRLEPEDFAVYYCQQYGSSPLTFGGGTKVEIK; 1
h224G11 (humanized 224G11) (antibody, human IgG4, V domains shown, also called Humanized h224G11; 224G11 IgG4(S228P)) VH: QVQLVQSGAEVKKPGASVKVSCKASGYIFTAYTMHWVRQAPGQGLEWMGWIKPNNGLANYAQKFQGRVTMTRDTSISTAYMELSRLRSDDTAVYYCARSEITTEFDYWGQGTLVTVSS VL: DIVMTQSPDSLAVSLGERATINCKSSESVDSYANSFLHWYQQKPGQPPKLLIYRASTRESGVPDRFSGSGSGTDFTLTISSLQAEDVAVYYCQQSKEDPLTFGGGTKVEIK; -1
MH8 (antibody, IgG4, V domains shown) VH: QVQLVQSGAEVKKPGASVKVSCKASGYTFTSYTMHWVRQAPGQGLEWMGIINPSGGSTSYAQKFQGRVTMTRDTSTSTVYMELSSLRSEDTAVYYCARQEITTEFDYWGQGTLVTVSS VL: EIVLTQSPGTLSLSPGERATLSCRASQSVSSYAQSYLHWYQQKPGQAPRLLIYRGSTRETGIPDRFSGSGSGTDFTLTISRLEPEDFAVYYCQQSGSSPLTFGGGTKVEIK; 1
MH12 (antibody, IgG4, V domains shown) VH: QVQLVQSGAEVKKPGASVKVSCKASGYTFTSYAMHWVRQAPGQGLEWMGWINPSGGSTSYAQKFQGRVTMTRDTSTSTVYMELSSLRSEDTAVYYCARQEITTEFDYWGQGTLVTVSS VL: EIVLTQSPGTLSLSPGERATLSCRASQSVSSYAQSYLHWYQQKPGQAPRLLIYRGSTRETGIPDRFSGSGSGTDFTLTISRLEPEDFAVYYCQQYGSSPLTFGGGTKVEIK; 1
MH11 (antibody, IgG4, V domains shown) VH: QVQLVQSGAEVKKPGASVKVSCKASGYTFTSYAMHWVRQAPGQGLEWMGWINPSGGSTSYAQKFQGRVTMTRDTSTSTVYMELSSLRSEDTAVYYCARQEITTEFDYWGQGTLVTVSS VL: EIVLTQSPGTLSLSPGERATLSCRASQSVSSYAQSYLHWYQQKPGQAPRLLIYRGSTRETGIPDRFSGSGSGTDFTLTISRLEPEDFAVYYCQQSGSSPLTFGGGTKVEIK; -1

Consider now this further binder.
Query: For this binder, is EC50 lower than 0.6 nM? 04F09 (antibody, IgG4, V domains shown) VH: QVQLVQSGAEVKKPGASVKVSCKASGYIFTSYSMHWVRQAPGQGLEWMGWINPSNGLANYAQKFQGRVTMTRDTSTSTVYMELSSLRSEDTAVYYCARQEITTEFDIWGQGTLVTVSS VL: EIVLTQSPGTLSLSPGERATLSCRASQSVESYAQSYLHWYQQKPGQAPRLLIYRGSTRESGIPDRFSGSGSGTDFTLTISRLEPEDFAVYYCQQSKSDPLTFGGGTKVEIK
Reply: -1

Origin of measurements: patent US20260042850A1
